I'd appreciate it if you could supply apparent KD of K4 kissing-loop reporter values for the items below.
Test system: K4 kissing-loop RNA reporter;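 further: bound reporter read as fluorescence of individual clusters on recovered sequencing chips by microscopy, with normalized cluster intensities fitted with a binding model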
assay.name: apparent KD of K4 kissing-loop reporter; higher = weaker reporter binding
condition.notes: Eterna round: R107; input ligand: FMN 200 uM
Give bare numbers, in nM.

# sequence.code, experimental.system, data.value
rows = [
    ("GUCCCAGUGAUGUUGGUAGGCGAGCGGGAUACCAGCGAAGACUCACGCCCUUGGCAGCCCACAUAUCCCGCGUAGGGAUUAGCUC [Same State - Theophylline A (Freestyle 21)]", "K4 kissing-loop RNA reporter", 364),
    ("GCCGUAGAUUGAAGGAGCGUGGACCUAUCGCUUGAACAGUGAUGUUGUUUAUCUAGGGAGCCGCAGGUAGGUCGCAAUCUACGGC", "K4 kissing-loop RNA reporter", 470),
    ("GCCGUAGAUUGAAGGAGCGCUAGUCUACGAUGACACACAGUGAUGUUGUGCGUGAUUUCAUAGCAGGUAGGUCGCAAUCUACGGC", "K4 kissing-loop RNA reporter", 230),
    ("UGAUCAACAUCUGAUACCAGUCGCUCGAGUAAUCAACCGUGGCUAGUGAUGUUGGCUUUUGACCCUUGGCAGCAGAAUCGUGUCA [theeternabot_sameState_KL_Theo_B_20]", "K4 kissing-loop RNA reporter", 134),
]

State recorded apparent KD of K4 kissing-loop reporter for all listed sequences.
1. GCAACAUUGGCAGGAUAUCCUUCUCAGUGAUGUUGAGGGUUCAGCUAACGAAAGUUAGUUGUACCGGGAGAAGGGCUAAUGUUGC [Omei KL FMN B SS A v8]
2. UGUGUUUACCUGACUCAGUGAUGUUGAGAAGGAGCGUGCUAAUGCACAGGUAGGUCGCUCAACCUAAAUUCAGGUGAGCACUAAA
3. GCUAUGGUAGGAAGGAGCGCUGCCUUGUUUUUACGAGUGAUGUUCGGAAGCAGGGUGUUAAAGCAGGUAGGUCGCCUACUAUAGC [Arginine B K4 23]
4. UAUCGAGUGAUGUUCGAUGUAGUGCAUUCAGAGGAUAUAGGAUGGGCUAGAAGGCUGAAAAGUGCUUCGAGUGAUGUUCGAAGAU [Exclusion FMN A GF 5]
5. UGCCGGAAGGCGAGCGCUCCCACUCCGGAAGGAGCGCCCGUAAGGGCAGGUAGGUCGCCGGAGUGAUGUUCCGGUGGAGGGCUCG [#2 Exclusion - Arginine A Attempt #22 (Inspired by Omei)]
6. UGCACCAGUGAUGUUGGUCGGCACCGAGAUACCAGCUGAUCUCUUAGCCCUUGGCAGCUCUUUAUUCGCGUUAUCAGUUUCUUCG [theeternabot_sameState_KL_Theo_A_16]
7. GAUAAAUUGAUGCGUAGUGAUGCACGGGAAGGAGCGCGUUUUUUCGCAGGUAGGUCGCCCGACUGCGCGUUUCGAGUGAUGUUCG [5.)]
8. UGACAUUGCUCAGAUACCAGACAUGAGCAUCAGCCAUGUACCAAGAAAACGUACAUAAAUGUCCCUUGGCAGCUGAGCAAUGUCU [TheoBX 10]

Ans:
1: 288; 2: 587; 3: 191; 4: 63.8; 5: 203; 6: 428; 7: 192; 8: 83.5

----------
System: MS2 coat protein
assay.name: apparent KD of MS2 coat protein; designed switch direction (-1 OFF switch, 1 ON switch): -1; higher = weaker reporter binding
condition.notes: input ligand: none
Each entry falls in a class defined on apparent KD of MS2 coat protein; the bands are 1 (below 20 nM), 2 (20 nM to below 50 nM), 3 (50 nM or more)

# sequence.code, answer.label
data = [
    ("AAGUCGACGGUGAGGAUAUAGGUCGAACGACAGAUCUAGAAGGUACAUGAGGAUCACCCAUGUGGGUAACGUCG [Brourd's EX4 #35] (Eterna round: R97, puzzle: Brourd's mod of Exclusion 4)", 2),
    ("CUUCGUUGCAAGGAUAUGUGAACGAAGAGGGAUACAGAAGGUGCUACAUGAGGAUCACCCAUGUGGGUUGAUUU [Eternabot (L1) Solution 48] (Eterna round: R97, puzzle: Exclusion 6)", 3),
    ("GCUAAGGUAGGAUAUUGCGACGUGAACAUGAGGAUCACCCAUGUCUGGUCUGACAGGCAUCAAGAAGGGCCAGUCU [Eternabot (L2) Solution 30] (Eterna round: R97, puzzle: Exclusion 5)", 3),
]

Then this sequence:
Q: Using the reported apparent KD of MS2 coat protein, which band applies to CUAACAUGCUGGUGAUCAUACAUGAGGAUCACCCAUGUAACAAGCUUUUUGCUCGUCUUAUAAGAUUACUAGUAUGU [Stov1/10-A4] (Eterna round: R97, puzzle: Sensor, turn-off variant 1) ?
Ans: 2
